Recorded log10 of IC50 values for a group of compounds are listed next.
molecular target: Oxoeicosanoid receptor 1 (Homo sapiens, UniProt Q8TDS5); experiment: Antagonist activity at OXE receptor (unknown origin) expressed in indo-1 loaded neutrophils assessed as inhibition of 5-oxo-ETE-induced calcium mobilization incubated for 2 mins prior to 5-oxo-ETE induction by spectrofluorometric analysis; format: functional
Sequence (Q8TDS5 whole entry): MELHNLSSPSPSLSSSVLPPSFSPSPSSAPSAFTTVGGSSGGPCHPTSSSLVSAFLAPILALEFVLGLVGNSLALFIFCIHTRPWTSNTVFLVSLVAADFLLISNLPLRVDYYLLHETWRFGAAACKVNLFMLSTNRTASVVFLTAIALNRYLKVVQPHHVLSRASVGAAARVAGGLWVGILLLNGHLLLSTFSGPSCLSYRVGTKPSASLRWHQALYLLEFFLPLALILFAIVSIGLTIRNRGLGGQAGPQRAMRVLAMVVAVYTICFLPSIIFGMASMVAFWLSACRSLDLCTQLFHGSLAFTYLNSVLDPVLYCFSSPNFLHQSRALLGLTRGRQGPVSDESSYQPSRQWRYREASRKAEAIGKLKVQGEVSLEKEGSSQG
quantity_measured: log10 of IC50 (log10 of the value in nM)

>>> quantitative_result("CCCCCCc1cc2ccccc2n1C(=O)CC1(CC(=O)O)CC1")
3.21
>>> quantitative_result("CCCCCCc1c(C(=O)CC(C)CC(=O)O)c2ccccc2n1C (stereo not given)")
2.50
>>> quantitative_result("CCCCCCc1c(C(=O)CCCC(=O)O)c2ccccc2n1C")
3.78
>>> quantitative_result("CCCCCCc1c(C(=O)CCCC(=O)O)c2cc(Cl)ccc2n1C")
2.75
>>> quantitative_result("CCCCCCCCCCCc1cc2ccccc2n1C(=O)CCCC(=O)O")
2.85

###

target: Oxoeicosanoid receptor 1 (Homo sapiens); test: Antagonist activity at OXE receptor (unknown origin) expressed in indo-1 loaded neutrophils assessed as inhibition of 5-oxo-ETE-induced calcium mobilization incubated for 2 mins prior to 5-oxo-ETE induction by spectrofluorometric analysis; format: functional
pIC50: −log10 of the molar value.
Note to self: class labels come from recorded pIC50, ranges listed here: lo (below 6), mid (6 to below 7), hi (7 or more)

>>> class("CCCCCCCCC/C=C\\c1cc2ccccc2n1C(=O)CCCC(=O)O")
"mid"
>>> class("CCCCc1cc2ccccc2n1C(=O)CCCC(=O)O")
"lo"
>>> class("CCCC/C=C/c1cc2ccccc2n1C(=O)CCCC(=O)O")
"lo"
>>> class("CCCCCCc1cc2ccc(OC)cc2n1C(=O)CC(C)CC(=O)O (configuration not stated)")
"mid"
>>> class("CCCCCCc1cc2ccc(Br)cc2n1C(=O)CC(C)CC(=O)O (configuration not stated)")
"hi"
>>> class("CCCCCCc1cc2ccccc2n1C(=O)CC(C)(C)CC(=O)O")
"lo"
>>> class("CCCCCCc1nc2ccccc2cc1C(=O)CCCC(=O)O")
"lo"
>>> class("CCCCCCc1c(C(=O)CC(C)CC(=O)O)c2cc(Br)ccc2n1C (configuration not stated)")
"hi"
>>> class("CCCCCCCCc1cc2ccccc2n1C(=O)CCCC(=O)O")
"mid"
>>> class("CCCCCCc1cc2cc(Br)ccc2n1C(=O)CC(C)CC(=O)O (configuration not stated)")
"mid"

###

molecular target: Oxoeicosanoid receptor 1 (Homo sapiens); assay: Antagonist activity at OXE receptor (unknown origin) expressed in indo-1 loaded neutrophils assessed as inhibition of 5-oxo-ETE-induced calcium mobilization incubated for 2 mins prior to 5-oxo-ETE induction by spectrofluorometric analysis; type: functional
Calls of active or inactive are those of the source. The rule behind the calls is not given here.
quantity_measured: inhibition

>>> result("CCCCCCn1cc(C(=O)CCCC(=O)O)c2ccccc21")
"Active"
>>> result("CCCCCCc1cn(C(=O)CCCC(=O)O)c2ccccc12")
"Active"
>>> result("CCCCCCc1[nH]c2ccccc2c1C(=O)CCCC(=O)O")
"50%"
>>> result("CCCCCCc1ccc2c(ccn2C(=O)CCCC(=O)O)c1")
"Active"
>>> result("CCCCCCc1cccc2ccn(C(=O)CCCC(=O)O)c12")
"Active"
>>> result("CCCCCCc1ccc2ccn(C(=O)CCCC(=O)O)c2c1")
"Active"
